Documented MRT inf across a set of molecules
- method: in vivo
- particulars: male, SD, rat, plasma, iv, 1 mg/kg
I only need the number, in h, no unit after it.

| molecule | test value |
| --- | --- |
| CC(=O)NC1C(OC2C(C)OC(OC3C=CC=CC=CC=CCCC=CC=CC(C)C(O)C(C)C(C)OC(=O)CC(O)CC(O)CC(O)CCC(O)C(O)CC4(O)CC(O)C(C(=O)O)C(C3)O4)C(O)C2N)OC(CO)C(O)C1O (centres unmarked) [NPP A1] | 0.7 |

What the record says about CC(=O)NC1C(OC2C(C)OC(OC3C=CC=CC=CC=CC=CC=CC=CC(C)C(O)C(C)C(C)OC(=O)CC(O)CC(O)CC(O)CCC(O)C(O)CC4(O)CC(O)C(C(=O)O)C(C3)O4)C(O)C2N)OC(CO)C(O)C1O (centres unmarked) [NPP B1, Nystatin-like Pseudonocardia polyene B1] : MRT inf is 15.6
